test system: Human alphaherpesvirus 1; test: Effective concentration required to inhibit herpes simplex virus 1 in vero cells in plaque reduction assay; type: functional, organism-based; settings: Human alphaherpesvirus 1, Vero
pEC50: −log10 of the molar value.
Recorded pEC50 values for a group of molecules are listed next.

Nc1nc(O)c2ncn(/C=C3\CC34COP(=O)(O)OC4)c2n1 (stereo unspecified)	< 4.30
Nc1nc(O)c2ncn(/C=C3/CC34COP(=O)(O)OC4)c2n1 (stereo unspecified)	4.80
Nc1nc2c(ncn2COCCO)c(=O)[nH]1 [ACYCLOVIR]	4.87

Inquiry: Name the reported pEC50 value associated with the molecule Nc1nc2c(ncn2/C=C2/CC2(CO)CO)c(=O)[nH]1 [FILOCICLOVIR]
Reply text: < 4.30

Inquiry: Would you kindly share the measured pEC50 for COC(=O)C(C)NP(=O)(OCC1(CO)C/C1=C/n1cnc2c(N)ncnc21)Oc1ccccc1 (stereo unspecified) ?
Reply text: < 4.40

Inquiry: // query pEC50 value for entry "Nc1ncnc2c1ncn2/C=C1/CC1(CO)CO"
Reply text: < 4.30

Inquiry: Which pEC50 reading was recorded for the molecule COC(=O)C(C)NP(=O)(OCC1(CO)C/C1=C\n1cnc2c(O)nc(N)nc21)Oc1ccccc1 (stereo unspecified) ?
Reply text: < 4.30

Inquiry: # input molecule: Nc1nc(O)c2ncn(/C=C3/CC3(CO)COP(=O)(O)O)c2n1 (stereo unspecified) ; wanted: its pEC50
Reply text: 4.30

* * *

test system: Human alphaherpesvirus 2; assay: Effective concentration required to inhibit herpes simplex virus 2 in HFF cells in cytopathic effect (CPE) assay; type: functional, organism-based; conditions: Human alphaherpesvirus 2, HFF
QUANTITY KIND: EC50

Consider the worked cases shown below.
Nc1ncnc2c1ncn2/C=C1/CC1(CO)CO	> 404 µM
COC(=O)C(C)NP(=O)(OCC1(CO)C/C1=C/n1cnc2c(O)nc(N)nc21)Oc1ccccc1 (stereo unspecified)	> 198 µM
COC(=O)C(C)NP(=O)(OCC1(CO)C/C1=C\n1cnc2c(O)nc(N)nc21)Oc1ccccc1 (stereo unspecified)	> 198 µM

Inquiry: Lookup: EC50 / Human alphaherpesvirus 2 / COC(=O)C(C)NP(=O)(OCC1(CO)C/C1=C\n1cnc2c(N)ncnc21)Oc1ccccc1 (stereo unspecified)
Reply text: > 205 µM

Inquiry: // lookup EC50 | system=Human alphaherpesvirus 2 | key= Nc1nc(O)c2ncn(/C=C3\CC34COP(=O)(O)OC4)c2n1 (stereo unspecified)
Reply text: > 299 µM

Inquiry: Enter reported EC50 observed with Human alphaherpesvirus 2 for Nc1nc(O)c2ncn(/C=C3/CC34COP(=O)(O)OC4)c2n1 (stereo unspecified)
Reply text: 242 µM

Inquiry: Request body: readout EC50, system Human alphaherpesvirus 2, query "Nc1nc2c(ncn2COCCO)c(=O)[nH]1" . Return the value.
Reply text: 6.7 µM

Inquiry: State its EC50 on Human alphaherpesvirus 2: Nc1nc(O)c2ncn(/C=C3/CC3(CO)COP(=O)(O)O)c2n1 (stereo unspecified)
Reply text: 23.3 µM

Inquiry: Give the reported EC50 for Nc1nc(O)c2ncn(/C=C3\CC3(CO)COP(=O)(O)O)c2n1 (stereo unspecified) (system: Human alphaherpesvirus 2).
Reply text: > 291 µM

Inquiry: Notebook: pull reported EC50 for Human alphaherpesvirus 2, entry "Nc1nc2c(ncn2/C=C2/CC2(CO)CO)c(=O)[nH]1"
Reply text: > 380 µM

Inquiry: For Human alphaherpesvirus 2, provide EC50 of COC(=O)C(C)NP(=O)(OCC1(CO)C/C1=C/n1cnc2c(N)ncnc21)Oc1ccccc1 (stereo unspecified) please.
Reply text: 22.1 µM

* * *

Measured CC50, listed per entry.
test system: HFF; experiment: Cytotoxic concentration against towne strain of human cytomegalovirus infected HFF cells of human (visual cytotoxicity); assay type: functional

The following molecules have reported results that may help.
Nc1nc(O)c2ncn(/C=C3/CC34COP(=O)(O)OC4)c2n1 (stereo not given)	> 100 µM
Nc1nc(O)c2ncn(/C=C3/CC3(CO)COP(=O)(O)O)c2n1 (stereo not given)	100 µM
Nc1nc(O)c2ncn(/C=C3\CC34COP(=O)(O)OC4)c2n1 (stereo not given)	> 100 µM
COC(=O)C(C)NP(=O)(OCC1(CO)C/C1=C/n1cnc2c(O)nc(N)nc21)Oc1ccccc1 (stereo not given)	> 100 µM

Consider the record given below.
Inquiry: Which CC50 is reported for this molecule? COC(=O)C(C)NP(=O)(OCC1(CO)C/C1=C\n1cnc2c(O)nc(N)nc21)Oc1ccccc1 (stereo not given)
Reply text: > 100 µM

* * *

Overview of reported EC50 across a group of molecules:
test system: Hepatitis B virus; experiment: Effective concentration required to inhibit hepatitis B virus replication in 2.2.15 cells in DNA hybridization assay; assay type: functional, organism-based; settings: HepG2 2.2.15
Field format: number, assumed µM, no unit text.

Consider the reported EC50 for these molecules:
Nc1nc(O)c2ncn(/C=C3/CC3(CO)COP(=O)(O)O)c2n1 (stereo unspecified)	15
COC(=O)C(C)NP(=O)(OCC1(CO)C/C1=C/n1cnc2c(O)nc(N)nc21)Oc1ccccc1 (stereo unspecified)	4.1
Nc1ccn([C@@H]2CS[C@H](CO)O2)c(=O)n1 [LAMIVUDINE]	0.05
Nc1nc(O)c2ncn(/C=C3/CC34COP(=O)(O)OC4)c2n1 (stereo unspecified)	0.8

Okay, now this molecule:
Inquiry: Consider the molecule shown here: COC(=O)C(C)NP(=O)(OCC1(CO)C/C1=C/n1cnc2c(N)ncnc21)Oc1ccccc1 (stereo unspecified) What is its recorded EC50?
Reply text: 12.8

* * *

system: HFF; experiment: Cytotoxic concentration against towne strain of human cytomegalovirus infected HFF cells of human (visual cytotoxicity); type: functional
QUANTITY KIND: CC50

Worked examples, 2 molecules total:
Nc1ncnc2c1ncn2/C=C1/CC1(CO)CO	> 100 µM
COC(=O)C(C)NP(=O)(OCC1(CO)C/C1=C\n1cnc2c(N)ncnc21)Oc1ccccc1 (stereo not drawn)	> 100 µM

// below: CC50 requested for another molecule
Inquiry: Consider the molecule shown here: COC(=O)C(C)NP(=O)(OCC1(CO)C/C1=C/n1cnc2c(N)ncnc21)Oc1ccccc1 (stereo not drawn) What is its recorded CC50?
Reply text: 32 µM

* * *

Quick reference for EC50 among some compounds
system: Human alphaherpesvirus 1; test: Effective concentration required to inhibit herpes simplex virus 1 in vero cells in plaque reduction assay; type: functional, organism-based; details: Human alphaherpesvirus 1, Vero

Would you please look over these solved cases?
COC(=O)C(C)NP(=O)(OCC1(CO)C/C1=C\n1cnc2c(N)ncnc21)Oc1ccccc1 (stereo not drawn)	> 30 µM
Nc1nc(O)c2ncn(/C=C3\CC3(CO)COP(=O)(O)O)c2n1 (stereo not drawn)	> 50 µM

Inquiry: Request the reported EC50 associated with COC(=O)C(C)NP(=O)(OCC1(CO)C/C1=C/n1cnc2c(O)nc(N)nc21)Oc1ccccc1 (stereo not drawn)
Reply text: > 50 µM

* * *

system: Hepatitis B virus; assay: Effective concentration required to inhibit hepatitis B virus replication in 2.2.15 cells in DNA hybridization assay; assay type: functional, organism-based; settings: HepG2 2.2.15
pEC50: −log10 of the molar value.
Listed next: entries and their corresponding pEC50.

Nc1nc(O)c2ncn(/C=C3\CC34COP(=O)(O)OC4)c2n1 (stereo unspecified)	< 4.70
Nc1nc2c(ncn2/C=C2/CC2(CO)CO)c(=O)[nH]1	< 5.00
Nc1ncnc2c1ncn2/C=C1/CC1(CO)CO	< 5.00
Nc1nc(O)c2ncn(/C=C3\CC3(CO)COP(=O)(O)O)c2n1 (stereo unspecified)	< 4.70
COC(=O)C(C)NP(=O)(OCC1(CO)C/C1=C\n1cnc2c(O)nc(N)nc21)Oc1ccccc1 (stereo unspecified)	< 5.00

Inquiry: What pEC50 appears in the records for this compound with Hepatitis B virus? COC(=O)C(C)NP(=O)(OCC1(CO)C/C1=C\n1cnc2c(N)ncnc21)Oc1ccccc1 (stereo unspecified)
Reply text: < 4.70
